- target of assay: T1, mouse IL-22 (Mus musculus, UniProt Q9JJY9)
- T1 sequence (Q9JJY9 34-179): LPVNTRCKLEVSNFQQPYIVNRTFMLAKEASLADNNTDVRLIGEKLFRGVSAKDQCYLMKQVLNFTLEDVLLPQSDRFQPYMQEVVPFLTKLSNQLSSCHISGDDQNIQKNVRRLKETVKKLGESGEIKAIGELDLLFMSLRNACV
- protocol description: SPR capture assay, affinity to mouse IL-22
- Format: binding
- test context: mouse IL-22, SPR

# molecule, ka [M·s]
rows = [
    ("CPS14 (antibody, V domains shown) VH: QVQLVQSGAEVKKPGASVKVSCKASGYIFTSYWIHWIRQPPGKGLEWIGRIYPGTGRTYYNRKFKGRVTISADKSISTAYLQWSSLKASDTAMYYCARSYDYSVAYWGQGTLVTVSS VL: AIQLTQSPSSLSASVGDRVTITCSASSSVSYMHWYLQKPGQSPQLLIYETRKLASGVPSRFSGSGSGTDFTFTISSLEAEDAATYYCQQWSSNPYITFGQGTKVEIKR", 256000),
]
